# procedureText: chemical genetic growth profiling, strain panel (AID 1159580);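 also: tested at 20 µM; growth read once vehicle control cultures reached saturation at 30 °C; 1 = growth at the plate median or of vehicle wells; lower values mean less growth of the strain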
# conditionsUsed: S. cerevisiae deletion strains, growth OD, locus YGR252W, strain gcn5, hits give low values
The campaign covered roughly 5,500 compounds. About 2,000 (36%) were called active. Inconclusive results (about 18%) are left out. This is one part of the list.
Mark True only when normalized growth stays strictly below 1. Values equal to the cut-off are False.

Worked examples, 4 compounds total:
CC1CC[C@@]2(OC1)O[C@H]1CC3C4CC[C@@H]5C[C@@H](O)CC[C@]5(C)C4CC[C@]3(C)[C@H]1[C@@H]2C (some centres not stated) ... False
CC(=O)Oc1ccc2c(c1OC(C)=O)OCC1(O)Cc3c(cc(OC(C)=O)c(OC(C)=O)c3OC(C)=O)C21 (configuration not stated) ... False
CCN(Cc1ccncc1)C(=O)C(CO)c1ccccc1 (configuration not stated) ... False
O=C1C=C2C(=CCOC2O)O1 (configuration not stated) ... True

input: normalized growth strictly < 1 for this compound? COc1cc2occc2c2oc(=O)ccc12
output: True

====

# procedureText: chemical genetic growth profiling, strain panel (AID 1159580)
# conditionsUsed: S. cerevisiae deletion strains, growth OD, locus YBR023C, strain chs3, hits give low values
Hit rate of the full screen: of about 5,500 compounds, about 2,000 (36%) were called active. About 18% were inconclusive and are not listed. The list shows a part of the results.
measuredParameter: normalized growth
Answers are plain numbers.

// known answers, use as guide
C=CC1C2=CCOC(=O)C2=COC1OC1OC(CO)C(O)C(O)C1O (stereo unspecified) ... 1.01
Cc1cc(OC(=O)c2c(C)cc(O)cc2O)cc(O)c1C(=O)O ... 0.978
COC(=O)[C@@]1(C)CCC[C@]2(C)c3ccc(O)c(C(C)C)c3CCC12 (stereo partly specified) ... 0.793
COc1cc(OC)c2ccc(=O)oc2c1 ... 0.964
CC(CC(O)C1OC1(C)C)[C@@H]1CCC2(C)C3=CCC4C(C)(C)C(=O)CCC4(C)C3CC[C@@]12C (stereo partly specified) ... 1.01

Batch request: normalized growth for each of the following compounds.
1. CC1CC[C@@]2(OC1)O[C@H]1CC3C4CC[C@@H]5C[C@@H](O)CC[C@]5(C)C4CC[C@]3(C)[C@H]1[C@@H]2C (stereo partly specified)
2. C[C@H]1O[C@H](OC2[C@@H](O)[C@@H](O)C(O)[C@H](O)[C@H]2O)[C@@H](N)C[C@@H]1N=C(N)C(=O)O (stereo partly specified)

output:
1: 1.05; 2: 0.99

====

# procedureText: chemical genetic growth profiling, strain panel (AID 1159580);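 also: tested at 20 µM; growth read once vehicle control cultures reached saturation at 30 °C; 1 = growth at the plate median or of vehicle wells; lower values mean less growth of the strain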
# conditionsUsed: S. cerevisiae deletion strains, growth OD, locus YLR262C, strain YPT6
Screen size: about 5,500 compounds; about 2,000 (36%) were called active. Roughly 18% stayed inconclusive and do not appear here. Rule as the data show it: active = normalized growth mostly below about 0.91 (no sharp cut-off); inconclusive = no clear call, values can overlap the other calls; inactive = mostly above about 0.92. This is one part of the list.
One label from this list, please: yes = active, no = inactive

Worked examples, 5 molecules total:
S=c1nccc(-c2ccc(Cl)cc2)[nH]1 ... no
C=C(C)[C@H]1COc2cc3oc(=O)ccc3cc2O1 ... yes
CCc1cccc(CC)c1N(COC)C(=O)CCl ... no
NC(=O)NCCCC(N)C(=O)O (configuration not stated) ... no
CC(C1OC(C)(C)C(O)C1O)[C@@H]1CC[C@]2(C)C3=CCC4C(C)(C)C(=O)CC[C@]4(C)C3CC[C@@]12C (some centres not stated) ... no

input: Which outcome did this test record for the molecule Brc1ccc(-c2ccn[nH]2)s1 ?
output: yes

input: Which outcome did this test record for the molecule O=S(=O)(Oc1cc(Cl)cc(Cl)c1)c1cccc(S(=O)(=O)Oc2cc(Cl)cc(Cl)c2)c1 ?
output: no

input: Which outcome did this test record for the molecule CC/C(=C(/CC)c1ccc(O)cc1)c1ccc(O)cc1 ?
output: yes

input: Which outcome did this test record for the molecule COc1cc(/C=C(\C#N)C(N)=S)cc(OC)c1OC ?
output: no

input: Which outcome did this test record for the molecule CCCCCc1c2c(cc(O)c1C(=O)O)OC(=O)c1c(cc(OC)cc1C(=O)CCCC)O2 ?
output: no

input: Which outcome did this test record for the molecule O=C1c2ccccc2C(=O)N1CNc1ccc(N2CCOCC2)cc1 ?
output: no

input: Which outcome did this test record for the molecule C[C@@H]1CC[C@@]2(OC1)OC1CC3C4CC=C5C[C@@H](O)CC[C@]5(C)C4CC[C@]3(C)C1[C@@H]2C (some centres not stated) ?
output: no

input: Which outcome did this test record for the molecule Cc1cc(C)c(CSCCNC(=O)Nc2ccc(F)cc2F)c(C)c1 ?
output: no

input: Which outcome did this test record for the molecule CSc1cccc(NC(=S)N=CN(C)C)c1 ?
output: no

====

Provide the reported normalized growth of each item.
# procedureText: chemical genetic growth profiling, strain panel (AID 1159580);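 also: tested at 20 µM; growth read once vehicle control cultures reached saturation at 30 °C; 1 = growth at the plate median or of vehicle wells; lower values mean less growth of the strain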
# conditionsUsed: S. cerevisiae deletion strains, growth OD, locus YHR030C, strain SLT2, hits give low values
Hit rate of the full screen: of about 5,500 compounds, about 2,000 (36%) were called active. Not shown: some 18% with an inconclusive outcome. The list shows a part of the results.
One number for each entry.

Oc1c(Br)cc(Br)cc1C=Nc1ccc(Sc2ccccc2)nc1Sc1ccccc1 ... 0.103
O=C(Cc1cccs1)NC1C(=O)N2C(C(=O)[O-])=C(C[n+]3ccccc3)CSC12 (stereo not given) ... 1.01
CCC(=O)c1c(O)cc(O)cc1O ... 1.01

Batch request: normalized growth for each of the following molecules.
1. CC1CC[C@@]2(OC1)O[C@H]1CC3C4CC[C@@H]5C[C@@H](O)CC[C@]5(C)C4CC[C@]3(C)[C@H]1[C@@H]2C (stereo not given in full)
2. Cc1cc(Br)c(NC(=O)C(Cl)(Cl)Cl)c(Br)c1

output:
1. 0.965
2. 0.592

Batch request: normalized growth for each of the following molecules.
1. OC[C@H]1O[C@H](O[C@]2(CCl)O[C@H](CCl)[C@@H](O)[C@@H]2O)[C@H](O)[C@@H](O)[C@H]1Cl
2. Oc1c(Br)cc(Br)cc1C=Nc1ccccn1
3. O=[N+]([O-])c1ccc(Oc2cccc3cccnc23)cc1
4. COc1cc(OC)c2c(=O)c(O)c(-c3ccc(OC)c(OC)c3)oc2c1
5. COC(=O)c1c(C)cc(O)cc1O
6. CC1CC[C@]2(NC1)O[C@H]1CC3C4CC[C@H]5C[C@@H](O)CC[C@]5(C)C4CC[C@]3(C)[C@H]1[C@@H]2C (stereo not given in full)
7. N#Cc1ccc(-c2csc(-c3ccc(Oc4ccc(C(F)(F)F)cn4)cc3)n2)cc1
8. CN1C(C)(C)CCCC1(C)C

output:
1.04
0.133
0.736
0.971
0.994
0.142
1.03
1.01

Batch request: normalized growth for each of the following molecules.
1. COc1cc(O)c2c(=O)c(O)c(-c3ccc(O)c(O)c3)oc2c1
2. CC(N)C12CC3CC(CC(C3)C1)C2 (stereo not given)

output:
[0.971, 0.992]

Batch request: normalized growth for each of the following molecules.
1. COc1ccccc1NC(=O)NCCSCc1ccccc1Cl
2. CCc1cccc(CC)c1N(COC)C(=O)CCl

output:
0.877
1

Batch request: normalized growth for each of the following molecules.
1. CC(=O)O[C@]1(C(C)=O)CCC2C3C=C(Cl)C4=CC(=O)[C@@H]5C[C@@H]5[C@]4(C)C3CC[C@@]21C (stereo not given in full)
2. CC(C)(C)NCC(O)c1cc(Cl)c(N)c(Cl)c1 (stereo not given)
3. CC(CC(C(N)=O)(c1ccccc1)c1ccccc1)N(C)C (stereo not given)

output:
1.03
1.01
1.02

Batch request: normalized growth for each of the following molecules.
1. CCC1OC(=O)[C@H](C)C(=O)[C@H](C)[C@@H](OC2O[C@H](C)C[C@H](N(C)C)[C@H]2O)[C@](C)(OC)C2(CCCn3cnc(-c4cccnc4)c3)C[C@@H](C)C(=O)[C@H](C)[C@H]3N(C2)C(=O)O[C@]13C (stereo not given in full)
2. COc1cc(Br)cc(C=Nc2ccc(Sc3ccccc3)nc2Sc2ccccc2)c1O
3. Cc1cc(C)c(CSCCNC(=O)Nc2ccc(F)cc2F)c(C)c1

output:
[0.999, 0.489, 1.08]

Batch request: normalized growth for each of the following molecules.
1. O=C1/C(=C/c2ccccn2)CCc2ccccc21
2. Oc1c(Cl)cc(Cl)cc1C=Nc1ccc(Sc2ccccc2)nc1Sc1ccccc1

output:
[0.88, 0.322]

====

# procedureText: chemical genetic growth profiling, strain panel (AID 1159580);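 also: tested at 20 µM; growth read once vehicle control cultures reached saturation at 30 °C; 1 = growth at the plate median or of vehicle wells; lower values mean less growth of the strain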
# conditionsUsed: S. cerevisiae deletion strains, growth OD, locus YNL322C, strain KRE1 (second series), hits give low values
The campaign covered roughly 5,500 compounds. About 2,000 (36%) were called active. Not shown: some 18% with an inconclusive outcome. The list shows a part of the results.
measuredParameter: normalized growth
Give bare numbers.

O=C(Cc1cccs1)NC1C(=O)N2C(C(=O)[O-])=C(C[n+]3ccccc3)CSC12 (centres undefined) ... 0.985

Batch request: normalized growth for each of the following compounds.
1. OCC(O)C(O)C(O)C(O)C(O)CO (centres undefined)
2. C[C@@H]1CC[C@@]2(OC1)OC1CC3C4CC=C5C[C@@H](O)CC[C@]5(C)C4CC[C@]3(C)C1[C@@H]2C (some centres undefined)
3. CC(CC(O)C1OC1(C)C)[C@@H]1CCC2(C)C3=CCC4C(C)(C)C(=O)CCC4(C)C3CC[C@@]12C (some centres undefined)
4. COc1cccc2c(C)cc(=O)[nH]c12
5. C=C1CCC2(OC1)OC1CC3C4CC=C5CC(O)CC(O)C5(C)C4CCC3(C)C1C2C (centres undefined)
6. COc1ccccc1/C=C\C(=O)O

output:
1: 0.999; 2: 0.997; 3: 0.989; 4: 0.977; 5: 1; 6: 0.999
